- protocol: LDH release assay, HOSE cells
- Assay type: cell-based, human
- experimental context: human, 50 μM, percentage of control cells
assay readout: viability at 24 h, 50 µM (%)

Oc1ccc(/C=C/c2ccc(O)c(O)c2)cc1O [3,3′,4,4′-THS, 3,3′,4,4′-tetrahydroxy-trans-stilbene] = 100

* * *

pIC50 values for the compounds below.
- System: HOSE cells
- protocol: LDH release assay, HOSE cells
- Type: cell-based, human
- experimental context: Homo sapiens, 24 h, CalcuSyn
pIC50: −log10 of the molar value.
assay readout: pIC50

Oc1ccc(/C=C/c2ccc(O)c(O)c2)cc1O [3,3′,4,4′-THS, 3,3′,4,4′-tetrahydroxy-trans-stilbene] = 3.27
Oc1ccc(/C=C/c2cc(O)cc(O)c2)cc1 [RVT, 3,4′,5-trihydroxy-trans-stilbene, reference compound] = 3.38
